molecular target: rNHE3 (Rattus norvegicus, UniProt P26433); construct: expressed in transfected cells; host or cells: LAP 1 cells (fibroblasts); test: Recovery of intracellular pH (pHi) after acidification, BCECF fluorescence, in fibroblasts (LAP 1 cells); assay type: cell-based; conditions: pH recovery in LAP 1 fibroblasts
Sequence (P26433 29-831): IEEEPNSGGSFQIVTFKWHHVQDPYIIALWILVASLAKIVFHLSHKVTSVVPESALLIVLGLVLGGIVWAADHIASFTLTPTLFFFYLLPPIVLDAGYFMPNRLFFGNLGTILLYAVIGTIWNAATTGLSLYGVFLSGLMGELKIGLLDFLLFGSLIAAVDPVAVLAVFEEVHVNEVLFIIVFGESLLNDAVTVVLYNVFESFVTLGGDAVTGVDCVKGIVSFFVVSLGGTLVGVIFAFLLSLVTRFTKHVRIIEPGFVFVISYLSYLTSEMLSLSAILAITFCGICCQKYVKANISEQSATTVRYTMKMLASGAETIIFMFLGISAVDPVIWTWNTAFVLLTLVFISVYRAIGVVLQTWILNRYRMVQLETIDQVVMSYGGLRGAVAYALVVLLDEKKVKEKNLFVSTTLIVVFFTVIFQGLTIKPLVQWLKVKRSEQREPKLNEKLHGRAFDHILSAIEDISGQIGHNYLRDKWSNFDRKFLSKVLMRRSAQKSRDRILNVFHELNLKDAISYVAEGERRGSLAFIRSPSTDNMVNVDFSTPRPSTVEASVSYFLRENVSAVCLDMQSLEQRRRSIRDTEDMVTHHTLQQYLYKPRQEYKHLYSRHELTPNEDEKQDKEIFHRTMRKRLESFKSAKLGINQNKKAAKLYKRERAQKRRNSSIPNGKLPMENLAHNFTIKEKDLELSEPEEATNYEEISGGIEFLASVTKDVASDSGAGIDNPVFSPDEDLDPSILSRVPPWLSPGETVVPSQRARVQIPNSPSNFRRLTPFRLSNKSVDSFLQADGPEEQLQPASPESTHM
Counter-ions that a name gives are not always drawn.
metricName: IC50 (µM)

{"compound": "N#Cc1nc(Nc2c(Cl)cccc2Cl)[nH]c1C#N [Example 6]", "IC50 (µM)": 98}
{"compound": "Clc1cccc(Cl)c1Nc1nc2c([nH]1)CCCC2 [Example 5, hydrochloride]", "IC50 (µM)": 0.24}

(I) Clc1cccc(Cl)c1Nc1ncc[nH]1 [Example 1, hydrochloride]
(II) Cc1nc(Nc2c(Cl)cccc2Cl)[nH]c1C [Example 3, hydrochloride]
(III) CN(c1nc2c([nH]1)CCCC2)c1c(Cl)cccc1Cl [Example 7, hydrochloride]
(IV) Cc1c[nH]c(Nc2c(Cl)cccc2Cl)n1 [Example 2, hydrochloride]
hey, can you rank those compounds up there by IC50? biggest number first please Give your ranking as a list of the labels in the requested order.
I, IV, II, III
(I: 7.7 µM, IV: 1.7 µM, II: 0.84 µM, III: 0.28 µM)
